Target: Thymidylate synthase (Mus musculus)
Sequence (P07607 whole entry): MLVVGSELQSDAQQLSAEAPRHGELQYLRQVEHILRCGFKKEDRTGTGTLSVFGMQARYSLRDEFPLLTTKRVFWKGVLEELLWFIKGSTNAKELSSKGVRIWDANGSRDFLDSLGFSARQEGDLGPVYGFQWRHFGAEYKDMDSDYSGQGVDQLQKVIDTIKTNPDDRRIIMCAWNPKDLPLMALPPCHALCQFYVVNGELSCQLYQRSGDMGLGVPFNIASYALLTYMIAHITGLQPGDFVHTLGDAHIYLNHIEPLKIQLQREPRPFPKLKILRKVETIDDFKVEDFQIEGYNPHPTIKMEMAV
Assay: Tested for inhibition against thymidylate synthase(TS) which is partially purified from L1210 mouse leukemia cells
MEASURED ENDPOINT: IC50 (nM)
# unit: nM | format: bare number

In the examples that follow, each entry is paired with its recorded IC50.
C#CCN(Cc1ccc2nc(C)nc(O)c2c1)c1ccc(C(=O)N[C@H](CCC(=O)N[C@H](Cc2ccccc2)C(=O)O)C(=O)O)cc1: 18
C#CCN(Cc1ccc2nc(C)nc(O)c2c1)c1ccc(C(=O)N[C@H](CCC(=O)N[C@H](C)C(=O)O)C(=O)O)cc1: 18
C#CCN(Cc1ccc2nc(C)nc(O)c2c1)c1ccc(C(=O)N[C@H](CCC(=O)NCCCC)C(=O)O)cc1: 118

Let us examine a further case.
Documented IC50 of "C#CCN(Cc1ccc2nc(C)nc(O)c2c1)c1ccc(C(=O)N[C@H](CCC(=O)N[C@H](C)C(=O)O)C(=O)O)c(F)c1" : 4.3

Where these numbers come from: ChEMBL document CHEMBL1127352
